- targetOfAssay: T1, Ep-CAM (UniProt P16422 24-265, limits assumed)
- T1 construct: Antigen of the Biacore analysis of ING-1 variants
- T1 sequence (looked up): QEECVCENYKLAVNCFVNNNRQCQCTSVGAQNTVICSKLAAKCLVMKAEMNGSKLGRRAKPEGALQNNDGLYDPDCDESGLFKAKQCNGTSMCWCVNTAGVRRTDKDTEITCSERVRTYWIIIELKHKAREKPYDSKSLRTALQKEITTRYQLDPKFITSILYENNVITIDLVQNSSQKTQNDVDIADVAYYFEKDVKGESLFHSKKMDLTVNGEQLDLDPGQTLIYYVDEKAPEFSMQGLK
- methodDescription: Biacore, Fab periplasmic extract
observedProperty: binding result

ING-1 heavy chain T53E (Fab, V domains shown) VH: QIQLVQSGPELKKPGETVKISCKASGYTFTKYGMNWVKQAPGKGLKWMGWINEYTEEPTYGDDFKGRFAFSLETSASTANLQINNLKSEDTATYFCARFGSAVDYWGQGTSVTVSS VL: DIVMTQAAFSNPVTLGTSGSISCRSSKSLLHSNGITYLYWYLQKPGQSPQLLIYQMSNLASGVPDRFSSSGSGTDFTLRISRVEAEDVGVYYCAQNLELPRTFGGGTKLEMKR : no binding
ING-1 heavy chain E57Q (Fab, V domains shown) VH: QIQLVQSGPELKKPGETVKISCKASGYTFTKYGMNWVKQAPGKGLKWMGWINTYTEQPTYGDDFKGRFAFSLETSASTANLQINNLKSEDTATYFCARFGSAVDYWGQGTSVTVSS VL: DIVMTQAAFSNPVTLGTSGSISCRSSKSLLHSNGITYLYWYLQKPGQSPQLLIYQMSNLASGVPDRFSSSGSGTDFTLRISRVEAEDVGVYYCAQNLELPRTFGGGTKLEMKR : no binding
ING-1 heavy chain N52Y (Fab, V domains shown) VH: QIQLVQSGPELKKPGETVKISCKASGYTFTKYGMNWVKQAPGKGLKWMGWIYTYTEEPTYGDDFKGRFAFSLETSASTANLQINNLKSEDTATYFCARFGSAVDYWGQGTSVTVSS VL: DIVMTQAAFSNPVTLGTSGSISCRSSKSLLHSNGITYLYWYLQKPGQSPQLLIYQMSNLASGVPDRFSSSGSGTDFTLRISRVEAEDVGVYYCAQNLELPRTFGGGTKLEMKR : no binding

Source listed as patent US20110118131A1.
